Tested on: 786-0
Assay info: NCI tumour cell line growth inhibition, 48 h
The source made the active and inactive calls. No stated cut-off is given here; in the data, active = GI50 up to about 1.1 µM and inactive = higher.

Compound: COC(=O)C(Cc1c[nH]c2ccccc12)NP(=O)(O)OCC1OC(n2ccc(N)nc2=O)C(O)C1O (configuration not stated)
GI50: > 100 µM (inactive)
//
Compound: CCOC(=O)CCC(C(=O)OCC)n1nc2ccc(Nc3c(C)[n+]([O-])c4cc(Cl)ccc4[n+]3[O-])cc2n1 (configuration not stated)
GI50: 83.9 µM (inactive)
//
Compound: Cc1ccc(Cl)c2c1NC(=O)/C2=N\Nc1ccccc1[N+](=O)[O-]
GI50: 28.8 µM (inactive)
//
Compound: COc1ccccc1NC(=O)C(CC(C(=O)Nc1ccccc1OC)/C(C)=N/NC(=O)c1ccccc1O)/C(C)=N/NC(=O)c1ccccc1O (configuration not stated)
GI50: > 100 µM (inactive)
//
Compound: Cc1cc(-c2ccccc2)nc2oc(=O)n(C)c12
GI50: 37.8 µM (inactive)
//
Compound: COc1ccc(/N=C2\C(=N/c3ccc(OC)cc3)N(c3ccccc3[N+](=O)[O-])C(=S)N2c2ccc(OC)cc2)cc1
GI50: > 100 µM (inactive)
//
Compound: COC(=O)c1c(C)cccc1C1CN=NC12Cc1c(C)cccc1C2=O (configuration not stated)
GI50: > 100 µM (inactive)
//
Compound: C=CCn1c(=S)sc2c(C(=O)OCC)c3c(C)cc(C)cn3c2c1=O
GI50: 61.1 µM (inactive)
//
Compound: COCC1N=C(c2cc(OC)c(OC)c(OC)c2-c2cc3c(cc2C2OCCCO2)OCO3)O[C@H]1c1ccccc1 (some centres not stated)
GI50: > 100 µM (inactive)
//
Compound: CCOC(=O)/C1=C(\C)N(Cc2ccccc2)C(=O)c2ccccc2C(=O)c2c(O)ccc(O)c21
GI50: > 100 µM (inactive)
//
Compound: COc1cc(/C=C2\C(=O)N(c3cccc(Cl)c3)C(c3ccccc3)S2(=O)=O)cc(OC)c1OC (configuration not stated)
GI50: 42.2 µM (inactive)
//
Compound: O=C(O)[C@@H]1CSCN1C(=O)[C@@H]1CCC(=S)N1
GI50: > 100 µM (inactive)
//
Compound: CC(=O)N1CCc2[nH]c3ccccc3c2CC1
GI50: > 100 µM (inactive)
//
Compound: O=C(CCc1nnc2s/c(=C\c3ccc(Cl)cc3Cl)c(=O)n12)Nc1cc(Cl)c(Cl)cc1Cl
GI50: > 10 µM (inactive)
//
Compound: COc1ccc(N2CCN(Cc3c(C(C)=O)[n+]([O-])c4ccccc4[n+]3[O-])CC2)cc1
GI50: 53.5 µM (inactive)
//
Compound: CCOC(=O)[C@@H](NC(=O)OC(C)(C)C)[C@@H](O)C(=O)OCC
GI50: > 100 µM (inactive)
//
Compound: CO/N=C/c1c(-c2ccc(Cl)cc2)c(/C=N/OC)n2c1sc1ccccc12
GI50: > 100 µM (inactive)

---

Tested on: MDA-MB-231
Assay info: NCI tumour cell line growth inhibition, 48 h
The source made the active and inactive calls. Cut-off read from the data, not from the text of the source: active = GI50 up to about 1.1 µM and inactive = higher.
Recorded GI50 by entry
Assay metric: GI50

Compound: Cc1ncc([N+](=O)[O-])n1CCNC(=O)CCCn1ccnc1[N+](=O)[O-]
System: MDA-MB-231
Assay metric: GI50
Data value: > 100 µM (inactive)
--
Compound: CC1CCCC(C(=O)CC2CC(=O)NC(=O)C2)C1=O (centres undefined)
System: MDA-MB-231
Assay metric: GI50
Data value: > 100 µM (inactive)
--
Compound: COC(=O)C(Cc1c(C2Nc3ccccc3C2CC(NC(=O)CNC(C)=O)C(=O)OC)[nH]c2ccccc12)NC(=O)CNC(C)=O (centres undefined)
System: MDA-MB-231
Assay metric: GI50
Data value: > 100 µM (inactive)
--
Compound: O=C1C=C/C(=N\N=C(c2ccccc2)c2ccccc2)O1
System: MDA-MB-231
Assay metric: GI50
Data value: > 10 µM (inactive)

---

System: SK-OV-3
Assay info: NCI tumour cell line growth inhibition, 48 h
Activity calls are given as the source filed them. No stated cut-off is given here; in the data, active = GI50 up to about 1.1 µM and inactive = higher.

Smiles string: CC(=O)OCc1c(O)nc2c(c1O)-c1ccccc1CC2
GI50: 194 µM (inactive)
//
Smiles string: CCOC(=O)c1c[nH]c(C(=O)OCC)c1-c1cccn1-c1ccccc1
GI50: 28.4 µM (inactive)
//
Smiles string: COc1cc(CNC2=NCCC2)cc(OC)c1OC
GI50: > 100 µM (inactive)
//
Smiles string: CSc1ccc2c(cc1=O)[C@@H](NC(=O)c1ccc(F)cc1)CCc1cc(O)c(O)c(O)c1-2
GI50: > 100 µM (inactive)

---

Consider the following molecules and their measured GI50 readings.
Test system: NCI-H522
Assay info: NCI tumour cell line growth inhibition, 48 h
Activity calls are given as the source filed them. Rule as the data show it: active = GI50 up to about 1.1 µM and inactive = higher.

Molecule: CCCCCCn1c(SCC)c2ccccc2c1-c1nc(F)nc(F)n1
System: NCI-H522
GI50: > 100 µM (inactive)

Molecule: COc1ccc(CCCCl)c(C2=NCCc3cc(OC)c(OC)cc32)c1
System: NCI-H522
GI50: 28.8 µM (inactive)

Molecule: CCCCCCCCCCCCCC(=O)NCC(OCC)OCC
System: NCI-H522
GI50: > 100 µM (inactive)

Molecule: C[C@H](CS)C(=O)N1c2ccccc2C[C@H]1C(=O)O
System: NCI-H522
GI50: > 100 µM (inactive)

Molecule: COC(=O)[C@H]1CC(=O)C=C2CCCC21 (stereo partly drawn)
System: NCI-H522
GI50: > 100 µM (inactive)

Molecule: O=C(N1CCOCC1)C1(c2ccccc2)CCNCC1
System: NCI-H522
GI50: > 100 µM (inactive)

Molecule: O=c1[nH]nc(Cc2ccc(Cl)cc2)n1CCO
System: NCI-H522
GI50: > 100 µM (inactive)

Molecule: CCCCCCCCCCCCCCCCP(=O)(OC)OC
System: NCI-H522
GI50: 13.5 µM (inactive)

Molecule: CC(=O)Oc1ccc2cc(Oc3ccc(Cl)c(Cl)c3)c(=O)oc2c1
System: NCI-H522
GI50: 21.2 µM (inactive)

Molecule: CCOC(=O)C1CCCN1C(=O)c1ccccc1Cl (stereo not drawn)
System: NCI-H522
GI50: > 100 µM (inactive)

Molecule: CCOC(=O)[C@@H]1[C@@H]2NC(=O)N[C@@]1(C)Oc1ccccc12
System: NCI-H522
GI50: > 100 µM (inactive)

Molecule: [O-][n+]1onc(-c2ccccc2)c1-c1no[n+]([O-])c1-c1c(-c2ccccc2)no[n+]1[O-]
System: NCI-H522
GI50: 18.8 µM (inactive)

Molecule: O=C1C[C@@H]2C(COC(=O)c3ccccc3)N(OCc3ccccc3)C[C@@H]2O1 (stereo partly drawn)
System: NCI-H522
GI50: > 100 µM (inactive)

Molecule: O=C1CC(NC(=O)C(F)(F)F)c2c(Br)sc(N3CCNCC3)c21 (stereo not drawn)
System: NCI-H522
GI50: > 100 µM (inactive)

Molecule: O=C(NC1CCCCC1)NS(=O)(=O)c1ccc2c(c1)CCC2 [GLYHEXAMIDE]
System: NCI-H522
GI50: > 100 µM (inactive)

Molecule: Cc1ccc(C)c(NC(=O)C(=O)C(c2cnc3ccc([N+](=O)[O-])cc3n2)[N+](=O)[O-])c1 (stereo not drawn)
System: NCI-H522
GI50: 21.1 µM (inactive)

Molecule: Cn1c(=O)nc2n(CCO)c(-c3ccccc3)c(-c3ccccc3)nc-2c1=O
System: NCI-H522
GI50: > 100 µM (inactive)

Molecule: COC[C@@H](/N=C/C(C)(C)C)C(C)C
System: NCI-H522
GI50: > 100 µM (inactive)

---

Test system: M14
Assay info: NCI tumour cell line growth inhibition, 48 h
Calls of active or inactive are those of the source. Rule as the data show it: active = GI50 up to about 1.1 µM and inactive = higher.
Assay metric: GI50

Compound: O=c1[nH]c(=O)n(C2OC(CO)C(O)C(F)C2O)cc1F (configuration not stated)
Assay metric: GI50
Data value: > 100 µM (inactive)
--
Compound: CC[C@H](C)[C@H](NC(=O)N(CCC#N)CCN(CCN(C(=O)N[C@@H](Cc1ccccc1)C(=O)OC)c1ccccc1)C(=O)N[C@H](C(=O)OC)C(C)C)C(=O)OC
Assay metric: GI50
Data value: 20.5 µM (inactive)
--
Compound: CC(C)(C)NC1C2CCC(C)(C1O)C2(C)C (configuration not stated)
Assay metric: GI50
Data value: > 100 µM (inactive)
--
Compound: O=C1CC(NC(=O)C(F)(F)F)c2c(Br)sc(N3CCNCC3)c21 (configuration not stated)
Assay metric: GI50
Data value: > 100 µM (inactive)
--
Compound: CC(C)(C)n1c(=O)[nH]c(=O)n1C(C)(C)C
Assay metric: GI50
Data value: > 100 µM (inactive)
--
Compound: CC(=O)OCC1C(C(C)OC(C)=O)CCC2C1CCC1(C)C(OC(C)=O)CCC21 (configuration not stated)
Assay metric: GI50
Data value: 17.1 µM (inactive)
--
Compound: Cc1nn(C(=O)c2ccncc2)c2c1C(c1ccccc1[N+](=O)[O-])SC(=N)N2 (configuration not stated)
Assay metric: GI50
Data value: > 10 µM (inactive)
